Assayed System: TGFβ R1 (Homo sapiens, UniProt P36897)
Procedure Summary: TGFβ R1 autophosphorylation protocol (33P-ATP, phosphocellulose filter plate)
Type: biochemical
Condition: 10 uM ATP, 170 nM TGFβ R1, room temperature 20 minutes, read-out: IC50 for Kinase Inhibition
pIC50: −log10 of the molar value.
Readout Name: pIC50

Past entries and their recorded results:
{"Molecule": "COc1cnc(-c2cc(Cl)ccc2F)nc1Nc1ccncc1C(=O)NCCNCC[C@@H]1OC[C@@H](O)[C@H](O)[C@H]1O", "pIC50": 8.22}
{"Molecule": "CNC(=O)[C@H]1CCCN1CCCNC(=O)c1cnccc1Nc1nc(-c2cc(Cl)ccc2F)ncc1C(C)C", "pIC50": 7.96}

[P] CCCN(CCC)C(=O)C(=O)c1cnccc1Nc1nc(-c2cc(Cl)ccc2F)ncc1OC
[Q] COCCCNC(=O)c1cnccc1Nc1nc(-c2cc(Cl)ccc2F)ncc1C(C)C
[R] CC(C)c1cnc(-c2cc(Cl)ccc2F)nc1Nc1ccncc1C(=O)NC[C@H](C)OC(=O)[C@@H](N)C(C)C
[S] COc1cnc(-c2cc(Cl)ccc2F)nc1Nc1ccncc1C(=O)NCCNCC[C@@H]1O[C@H](CO)[C@@H](O)[C@H]1O
[T] CC(O)CNC(=O)c1c[n+]([O-])ccc1Nc1nc(-c2cc(Cl)ccc2F)ncc1C(C)C (stereo not shown)
// sort entries: pIC50, high to low Rank the items, then write their labels in that order. S, Q, R, T, P

====

Assayed System: TGFβ R1 (Homo sapiens, UniProt P36897)
Procedure Summary: TGFβ R1 autophosphorylation protocol (33P-ATP, phosphocellulose filter plate)
Format: biochemical
Condition: 10 uM ATP, 170 nM TGFβ R1, 20 minutes at room temperature, read-out: IC50 for Kinase Inhibition
Readout Name: IC50 (µM)

{"Molecule": "COc1cnc(-c2cc(Cl)ccc2F)nc1Nc1ccncc1C(=O)NC1CCN(CCC2O[C@H](CO)[C@@H](O)[C@H](O)[C@@H]2O)CC1 (stereo partly drawn) [Compound 152]", "Readout Name": "IC50", "Unit Spec": "µM", "Reported Value": 0.028}

[A] COC[C@@H]1OC(CCNCCCNC(=O)c2cnccc2Nc2nc(-c3cc(Cl)ccc3F)ncc2OC)[C@@H](OC)[C@H](OC)[C@H]1OC (stereo partly drawn) [Compound 125]
[B] COc1cnc(-c2cc(Cl)ccc2F)nc1Nc1ccncc1C(=O)NCCCNCCOC1O[C@H](CO)[C@@H](O)[C@H](O)[C@H]1O (stereo partly drawn) [Compound 134]
Which entry shows the lesser value of IC50 here, A or B ? # respond with the chosen item's label B

====

Assayed System: TGFβ R1 (Homo sapiens, UniProt P36897)
Procedure Summary: TGFβ R1 autophosphorylation protocol (33P-ATP, phosphocellulose filter plate)
Format: biochemical
Condition: 10 uM ATP, 170 nM TGFβ R1, room temperature 20 minutes, read-out: IC50 for Kinase Inhibition
pIC50: −log10 of the molar value.
Readout Name: pIC50

Past entries and their recorded results:
{"Molecule": "CC(C)c1cnc(-c2cc(Cl)ccc2F)nc1Nc1ccncc1C(=O)N1CCNCC1", "Reported Value": 6.00}
{"Molecule": "COc1cnc(-c2cc(Cl)ccc2F)nc1Nc1ccncc1C(=O)NCCCOCC(O)CO (centres unmarked)", "Reported Value": 7.48}
{"Molecule": "COCC(COC)NC(=O)c1cnccc1Nc1nc(-c2cc(Cl)ccc2F)ncc1C(C)C", "Reported Value": 6.37}

[a] CC(C)c1cnc(-c2cc(Cl)ccc2F)nc1Nc1ccncc1C(=O)NC[C@H](C)OC(=O)[C@@H](C)N
[b] CC(C)c1cnc(-c2cc(Cl)ccc2F)nc1Nc1ccncc1C(=O)NCCC(=O)N1CCC[C@H]1C(=O)N(C)C
Which entry shows the lesser value of pIC50 here, a or b ? # respond with the chosen item's label b

[P] CNC(=O)[C@@H]1CCCN1CCCNC(=O)c1cnccc1Nc1nc(-c2cc(Cl)ccc2F)ncc1C(C)C
[Q] COc1cnc(-c2cc(Cl)ccc2F)nc1Nc1ccncc1C(=O)N1CCC[C@@H](O)C1
Which entry shows the lesser value of pIC50 here, P or Q ? # respond with the chosen item's label Q
(Q: 5.75, P: 7.96)

====

Assayed System: TGFβ R1 (Homo sapiens, UniProt P36897)
Procedure Summary: TGFβ R1 autophosphorylation protocol (33P-ATP, phosphocellulose filter plate)
Assay type: biochemical
Condition: 10 uM ATP, 170 nM TGFβ R1, 20 minutes at room temperature, read-out: IC50 for Kinase Inhibition
Readout Name: IC50 (nM)

[a] COc1cnc(-c2cc(Cl)ccc2F)nc1Nc1ccncc1C(=O)NCCCN1CCCCC1C (centres unmarked)
[b] COc1cnc(-c2cc(Cl)ccc2F)nc1Nc1ccncc1C(=O)NCCCN1CC[C@@H](O)C1
[c] COc1cnc(-c2cc(Cl)ccc2F)nc1Nc1ccncc1C(=O)NCCCNC(=O)OC(C)(C)C
Place the item with the largest IC50 first, then continue in falling order, using the list above. Rank the items, then write their labels in that order. c, a, b
(c: 1130 nM, a: 60 nM, b: 40 nM)

[P] COc1cnc(-c2cc(Cl)ccc2F)nc1Nc1ccncc1C(=O)NCCNc1ccccc1
[Q] CCNC(=O)NCCNC(=O)c1cnccc1Nc1nc(-c2cc(Cl)ccc2F)ncc1OC
[R] COc1cnc(-c2cc(Cl)ccc2F)nc1Nc1ccncc1C(=O)NCCOCCO
[S] COc1cnc(-c2cc(Cl)ccc2F)nc1Nc1ccncc1C(=O)NCCCNC(C)C
[T] COc1cnc(-c2cc(Cl)ccc2F)nc1Nc1ccncc1C(=O)NCC(C)C(=O)O (centres unmarked)
# rank by IC50, ascending (min first) Rank the items, then write their labels in that order. S, Q, R, P, T
(S: 21 nM, Q: 150 nM, R: 310 nM, P: 760 nM, T: 1200 nM)

====

Assayed System: UniProt:P36897
Sequence (P36897 34-503): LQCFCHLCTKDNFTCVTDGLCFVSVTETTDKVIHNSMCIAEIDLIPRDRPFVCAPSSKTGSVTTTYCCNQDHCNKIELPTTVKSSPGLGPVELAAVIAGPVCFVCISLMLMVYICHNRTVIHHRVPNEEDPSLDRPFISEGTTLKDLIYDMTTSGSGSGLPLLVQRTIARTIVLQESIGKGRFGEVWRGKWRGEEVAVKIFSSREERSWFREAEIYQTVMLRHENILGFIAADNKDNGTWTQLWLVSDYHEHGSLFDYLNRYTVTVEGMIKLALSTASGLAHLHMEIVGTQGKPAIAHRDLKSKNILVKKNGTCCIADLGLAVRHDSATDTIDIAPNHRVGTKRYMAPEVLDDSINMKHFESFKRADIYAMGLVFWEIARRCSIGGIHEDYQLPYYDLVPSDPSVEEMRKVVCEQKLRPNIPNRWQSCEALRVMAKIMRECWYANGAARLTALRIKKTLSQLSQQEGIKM
Procedure Summary: TGFβ R1 autophosphorylation protocol (33P-ATP, phosphocellulose filter plate)
Type: biochemical
Condition: 10 uM ATP, 170 nM TGFβ R1, 20 minutes at room temperature, read-out: IC50 for Kinase Inhibition
Method: The compounds of the invention were tested for their ability to inhibit TGFβ by a TGFβ R^1 autophosphorylation protocol. This was conducted as follows: Compound dilutions and reagents were prepared fresh daily. […] The assay was performed by adding 10 ul of the enzyme to 20 ul of the compound solution. […] The plate was dried, scintillation cocktail was added to each well, and the wells were counted in a Packard TopCount microplate scintillation counter.
pIC50: −log10 of the molar value.
Readout Name: pIC50

Past entries and their recorded results:
{"Compound": "COc1cnc(-c2cc(Cl)ccc2F)nc1Nc1ccncc1C(=O)N1CCNCC1", "pIC50": 5.17}
{"Compound": "COc1cnc(-c2cc(Cl)ccc2F)nc1Nc1ccncc1C(=O)NCCNC(=O)COC1O[C@H](CO)[C@@H](O)[C@H](O)[C@H]1O (stereo partly shown)", "pIC50": 7.28}
{"Compound": "COc1cnc(-c2cc(Cl)ccc2F)nc1Nc1ccncc1C(=O)NCCCN1CCC[C@H]1C(N)=O", "pIC50": 7.64}

[a] COc1cnc(-c2cc(Cl)ccc2F)nc1Nc1ccncc1C(=O)NCCCN/C(=N/C#N)N1CCOCC1
[b] COC(=O)[C@H]1C[C@@H](NC(=O)c2cnccc2Nc2nc(-c3cc(Cl)ccc3F)ncc2OC)CN1
[c] COc1cnc(-c2cc(Cl)ccc2F)nc1Nc1ccncc1C(=O)NCCCN/C(=N/C#N)NC(C)C
# rank by pIC50, ascending (min first) Rank the items, then write their labels in that order. b, c, a
(b: 6.72, c: 6.92, a: 7.22)

====

Assayed System: TGFβ R1 (Homo sapiens, UniProt P36897)
Procedure Summary: TGFβ R1 autophosphorylation protocol (33P-ATP, phosphocellulose filter plate)
Type: biochemical
Condition: 10 uM ATP, 170 nM TGFβ R1, room temperature 20 minutes, read-out: IC50 for Kinase Inhibition
Readout Name: IC50 (nM)

Past entries and their recorded results:
{"Compound": "COc1cnc(-c2cc(Cl)ccc2F)nc1Nc1ccncc1C(=O)N1CCC[C@H](O)C1", "IC50 / nM": 1460}
{"Compound": "CC(C)c1cnc(-c2cc(Cl)ccc2F)nc1Nc1ccncc1C(=O)NC[C@H](C)OC(=O)CN", "IC50 / nM": 19}
{"Compound": "COc1cnc(-c2cc(Cl)ccc2F)nc1Nc1ccncc1C(=O)NC1(CO)CC1", "IC50 / nM": 42}
{"Compound": "CC(C)c1cnc(-c2cc(Cl)ccc2F)nc1Nc1ccncc1C(=O)NC1C[C@H]1CO (stereo in doubt)", "IC50 / nM": 10}
{"Compound": "O=C(c1cnccc1Nc1nc(-c2cc(Cl)ccc2F)ncc1C1CCCC1)N1CC[C@H](O)C1", "IC50 / nM": 673}

[a] COc1cnc(-c2cc(Cl)ccc2F)nc1Nc1ccncc1C(=O)NCCCCCNC(=O)CCCC[C@H]1SC[C@@H]2NC(=O)N[C@@H]21
[b] CC(C)c1cnc(-c2cc(Cl)ccc2F)nc1Nc1ccncc1C(=O)N[C@@H]1CCC[C@H]1O
Endpoint returns the identifier whose IC50 is numerically larger, either a or b . # respond with the chosen item's label b
(b: 123 nM, a: 54 nM)
